Values from the kinase profiling compilation of Christmann-Franck et al. (2016)

target of assay: PDGFRB (human) (UniProt P09619)
Sequence (P09619 whole entry, looked up): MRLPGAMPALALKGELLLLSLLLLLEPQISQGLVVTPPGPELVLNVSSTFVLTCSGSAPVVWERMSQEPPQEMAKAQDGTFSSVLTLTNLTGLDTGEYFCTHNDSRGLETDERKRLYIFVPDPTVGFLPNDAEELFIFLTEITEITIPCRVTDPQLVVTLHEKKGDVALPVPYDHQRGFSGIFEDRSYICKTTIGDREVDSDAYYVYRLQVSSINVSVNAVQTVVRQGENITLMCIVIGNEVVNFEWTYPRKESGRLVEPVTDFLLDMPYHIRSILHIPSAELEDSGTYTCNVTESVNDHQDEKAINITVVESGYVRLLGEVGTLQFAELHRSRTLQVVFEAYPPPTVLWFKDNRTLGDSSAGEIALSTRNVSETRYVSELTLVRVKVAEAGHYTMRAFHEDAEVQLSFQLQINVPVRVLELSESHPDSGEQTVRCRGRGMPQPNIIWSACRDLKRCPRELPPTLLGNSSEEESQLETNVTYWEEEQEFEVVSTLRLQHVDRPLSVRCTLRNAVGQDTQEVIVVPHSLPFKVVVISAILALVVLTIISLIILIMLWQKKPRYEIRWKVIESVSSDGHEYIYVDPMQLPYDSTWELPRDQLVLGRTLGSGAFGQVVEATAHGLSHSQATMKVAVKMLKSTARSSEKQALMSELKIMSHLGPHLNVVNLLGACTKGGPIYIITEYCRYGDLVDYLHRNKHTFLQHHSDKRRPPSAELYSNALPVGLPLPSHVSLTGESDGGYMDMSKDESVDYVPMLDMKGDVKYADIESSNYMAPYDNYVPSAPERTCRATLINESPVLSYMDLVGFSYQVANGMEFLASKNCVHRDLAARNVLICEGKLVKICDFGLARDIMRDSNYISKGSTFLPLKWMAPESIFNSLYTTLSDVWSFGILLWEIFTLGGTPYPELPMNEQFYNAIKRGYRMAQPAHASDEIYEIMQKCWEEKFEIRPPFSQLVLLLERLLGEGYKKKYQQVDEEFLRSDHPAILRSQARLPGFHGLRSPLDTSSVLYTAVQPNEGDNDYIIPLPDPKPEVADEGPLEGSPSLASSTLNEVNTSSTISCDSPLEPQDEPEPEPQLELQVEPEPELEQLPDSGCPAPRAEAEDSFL
assay: KINOMEscan competition binding
measurement parameters: compound 10.0 µM
What kinase still bound, per cent of control was measured for each of the following?
# unit: % | format: bare number

Sample `Cc1ccc2nc(NCCN)c3ncc(C)n3c2c1` — what was its kinase still bound, per cent of control? 57

Check COc1cc(C(=O)NC2CCN(C)CC2)ccc1Nc1ncc2c(n1)N(C1CCCC1)C(C)CC(=O)N2C (centres undefined) too. 100

Check `CCOc1cc2ncc(C#N)c(Nc3ccc(OCc4ccccn4)c(Cl)c3)c2cc1NC(=O)/C=C/CN(C)C` too. 69

Check `Cc1ccc(C(=O)Nc2cccc(C(F)(F)F)c2)cc1Nc1cncc(C(N)=O)c1` too. 0.05

###

target of assay: MAPK14 (human) (UniProt Q16539)
Sequence (Q16539 whole entry, looked up): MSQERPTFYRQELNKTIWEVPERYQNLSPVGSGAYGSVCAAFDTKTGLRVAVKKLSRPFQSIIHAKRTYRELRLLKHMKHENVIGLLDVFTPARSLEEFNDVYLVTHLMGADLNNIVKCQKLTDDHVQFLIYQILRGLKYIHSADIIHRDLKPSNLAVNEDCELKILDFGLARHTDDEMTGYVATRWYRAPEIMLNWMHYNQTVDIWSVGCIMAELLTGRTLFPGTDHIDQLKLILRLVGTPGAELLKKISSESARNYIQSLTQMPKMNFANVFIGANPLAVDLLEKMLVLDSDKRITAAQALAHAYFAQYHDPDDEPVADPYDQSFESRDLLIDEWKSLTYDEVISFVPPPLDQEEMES
assay: KINOMEscan competition binding
measurement parameters: compound 10.0 µM
readout: kinase still bound, per cent of control (%)
# unit: % | format: bare number

Given the entry `O=C(O)c1ccc(Nc2ncc3c(n2)-c2ccc(Cl)cc2C(c2c(F)cccc2F)=NC3)cc1` , what kinase still bound, per cent of control was observed with MAPK14 (human) (UniProt Q16539)? 93

Check `C=CC(=O)Nc1cccc(Nc2nc(N[C@H]3CC[C@H](N(C)C)CC3)nc3c2ncn3C(C)C)c1` too. 95

Check `Cc1ccc2nc(NCCN)c3ncc(C)n3c2c1` too. 98

Check `CCOc1cc2ncc(C#N)c(Nc3ccc(OCc4ccccn4)c(Cl)c3)c2cc1NC(=O)/C=C/CN(C)C` too. 91

Check `Cc1cc([C@@H](C)Nc2ccccc2C(=O)O)c2nc(N3CCOCC3)cc(=O)n2c1` too. 97

Check `O=C(NOC[C@H](O)CO)c1ccc(F)c(F)c1Nc1ccc(I)cc1F` too. 100

###

target of assay: CAMK2A (human)
assay: KINOMEscan competition binding
measurement parameters: compound 10.0 µM
What kinase still bound, per cent of control was measured for each of the following?
# unit: % | format: bare number

Given the entry `N#Cc1c(NC(=O)c2cccc3ccccc23)sc2c1CCCC2` , what kinase still bound, per cent of control was observed with CAMK2A (human)? 92

Check `C=CC(=O)Nc1cc(NC(=O)c2ccc(C)c(NC(=O)c3ccno3)c2)cc(C(F)(F)F)c1` too. 91

Check `O=C(NC1CC1)c1cccc(-c2ccc3c(NC(=O)C4CC4)n[nH]c3c2)c1` too. 88

Check `CCOc1cc2ncc(C#N)c(Nc3ccc(OCc4ccccn4)c(Cl)c3)c2cc1NC(=O)/C=C/CN(C)C` too. 90

###

target of assay: PRKCQ (human) (UniProt Q04759)
Sequence (Q04759 whole entry, looked up): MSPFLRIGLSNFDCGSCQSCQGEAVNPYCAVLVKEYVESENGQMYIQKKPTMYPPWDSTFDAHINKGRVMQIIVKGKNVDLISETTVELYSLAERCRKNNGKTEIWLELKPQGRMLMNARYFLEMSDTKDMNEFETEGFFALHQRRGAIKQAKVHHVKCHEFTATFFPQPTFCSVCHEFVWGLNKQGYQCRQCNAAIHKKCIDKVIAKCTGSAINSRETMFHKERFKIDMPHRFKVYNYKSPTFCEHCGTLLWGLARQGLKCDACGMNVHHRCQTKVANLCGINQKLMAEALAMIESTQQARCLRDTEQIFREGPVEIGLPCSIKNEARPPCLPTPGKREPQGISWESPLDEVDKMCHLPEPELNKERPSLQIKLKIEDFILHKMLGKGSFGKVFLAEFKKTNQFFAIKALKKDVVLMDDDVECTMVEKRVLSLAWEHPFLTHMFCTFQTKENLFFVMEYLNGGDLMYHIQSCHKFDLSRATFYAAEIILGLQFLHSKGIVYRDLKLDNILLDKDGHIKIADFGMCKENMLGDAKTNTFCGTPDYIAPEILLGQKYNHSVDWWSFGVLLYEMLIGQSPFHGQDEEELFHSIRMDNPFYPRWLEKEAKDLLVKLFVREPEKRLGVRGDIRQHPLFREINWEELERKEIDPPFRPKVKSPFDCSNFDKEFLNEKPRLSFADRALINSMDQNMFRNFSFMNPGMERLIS
assay: KINOMEscan competition binding
measurement parameters: compound 10.0 µM
What kinase still bound, per cent of control was measured for each of the following?
# unit: % | format: bare number

Sample `CN(C)C/C=C/C(=O)Nc1cccc(Nc2ncc3c(n2)N(C)c2ccccc2C(=O)N3C)c1` — what was its kinase still bound, per cent of control? 83

Check `CCN1CCN(Cc2ccc(Nc3ncc4c(n3)N(C)c3ccccc3C(=O)N4C)cc2C(F)(F)F)CC1` too. 100

Check `CCCS(=O)(=O)Nc1ccc(F)c(C(=O)c2c[nH]c3ncc(-c4ccc(Cl)cc4)cc23)c1F` too. 43

Check `COc1cc(N2CCN(C)CC2)ccc1Nc1nc(N)c(C(=O)c2c(Cl)cccc2Cl)s1` too. 54

###

target of assay: YSK4 (human) (UniProt Q56UN5)
Sequence (Q56UN5 whole entry, looked up): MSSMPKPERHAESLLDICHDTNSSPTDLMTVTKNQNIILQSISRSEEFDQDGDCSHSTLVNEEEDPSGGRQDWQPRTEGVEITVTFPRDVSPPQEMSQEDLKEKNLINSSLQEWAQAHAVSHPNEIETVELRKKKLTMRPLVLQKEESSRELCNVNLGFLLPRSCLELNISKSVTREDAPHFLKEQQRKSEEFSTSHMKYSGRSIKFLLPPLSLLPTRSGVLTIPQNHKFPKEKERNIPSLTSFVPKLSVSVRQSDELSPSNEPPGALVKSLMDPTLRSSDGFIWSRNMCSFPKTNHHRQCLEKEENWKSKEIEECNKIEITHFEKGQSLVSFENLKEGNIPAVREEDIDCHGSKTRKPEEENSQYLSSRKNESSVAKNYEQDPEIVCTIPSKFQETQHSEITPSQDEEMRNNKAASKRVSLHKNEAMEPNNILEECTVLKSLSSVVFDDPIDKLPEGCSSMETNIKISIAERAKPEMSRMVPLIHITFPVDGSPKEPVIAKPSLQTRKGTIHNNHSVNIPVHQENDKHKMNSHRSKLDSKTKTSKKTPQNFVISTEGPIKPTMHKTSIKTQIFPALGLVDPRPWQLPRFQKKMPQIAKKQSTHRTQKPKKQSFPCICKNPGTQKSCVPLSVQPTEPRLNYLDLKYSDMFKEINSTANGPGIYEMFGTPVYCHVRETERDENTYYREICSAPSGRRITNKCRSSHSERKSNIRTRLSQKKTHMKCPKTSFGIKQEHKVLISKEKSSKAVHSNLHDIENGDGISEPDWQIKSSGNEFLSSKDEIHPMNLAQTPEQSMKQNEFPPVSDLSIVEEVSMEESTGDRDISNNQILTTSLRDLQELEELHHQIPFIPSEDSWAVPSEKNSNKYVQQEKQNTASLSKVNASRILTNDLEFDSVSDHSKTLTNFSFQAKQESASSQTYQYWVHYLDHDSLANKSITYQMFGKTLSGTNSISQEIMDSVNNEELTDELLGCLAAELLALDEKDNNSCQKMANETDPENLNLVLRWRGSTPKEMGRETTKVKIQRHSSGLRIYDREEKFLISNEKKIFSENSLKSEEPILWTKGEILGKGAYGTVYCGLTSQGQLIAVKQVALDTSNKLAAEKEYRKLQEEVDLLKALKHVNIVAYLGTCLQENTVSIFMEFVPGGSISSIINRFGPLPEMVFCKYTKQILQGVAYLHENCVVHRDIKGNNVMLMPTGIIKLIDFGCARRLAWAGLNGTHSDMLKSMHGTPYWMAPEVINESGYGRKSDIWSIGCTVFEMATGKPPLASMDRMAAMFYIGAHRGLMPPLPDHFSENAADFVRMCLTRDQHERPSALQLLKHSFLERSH
assay: KINOMEscan competition binding
measurement parameters: compound 10.0 µM
readout: kinase still bound, per cent of control (%)
# unit: % | format: bare number

Sample `Cc1cc([C@@H](C)Nc2ccccc2C(=O)O)c2nc(N3CCOCC3)cc(=O)n2c1` — what was its kinase still bound, per cent of control? 100

Check `CCC(=O)N1CCN(c2ccc(-n3c(=O)ccc4cnc5ccc(-c6cnc7ccccc7c6)cc5c43)cc2C(F)(F)F)CC1` too. 38

Check `CN(C)C/C=C/C(=O)Nc1cccc(Nc2ncc3c(n2)N(C)c2ccccc2C(=O)N3C)c1` too. 6.2

Check `O=C(NOC[C@H](O)CO)c1ccc(F)c(F)c1Nc1ccc(I)cc1F` too. 100

Check `CCCS(=O)(=O)Nc1ccc(F)c(C(=O)c2c[nH]c3ncc(-c4ccc(Cl)cc4)cc23)c1F` too. 53

Check `C=CC(=O)Nc1cccc(Nc2nc(N[C@H]3CC[C@H](N(C)C)CC3)nc3c2ncn3C(C)C)c1` too. 15

###

target of assay: AURKA (human)
assay: KINOMEscan competition binding
measurement parameters: compound 10.0 µM
What kinase still bound, per cent of control was measured for each of the following?
# unit: % | format: bare number

Sample `COc1cc(C(=O)NC2CCN(C)CC2)ccc1Nc1ncc2c(n1)N(C1CCCC1)CCC(=O)N2C(C)C` — what was its kinase still bound, per cent of control? 100

Check `C=CC(=O)Nc1cccc(Oc2nc(Nc3ccc(N4CCN(C)CC4)cc3OC)ncc2Cl)c1` too. 28

Check `CCC(=O)N1CCN(c2ccc(-n3c(=O)ccc4cnc5ccc(-c6cnc7ccccc7c6)cc5c43)cc2C(F)(F)F)CC1` too. 100

Check `O=C(NC1CC1)c1cccc(-c2ccc3c(NC(=O)C4CC4)n[nH]c3c2)c1` too. 86

Check COc1cc(C(=O)NC2CCN(C)CC2)ccc1Nc1ncc2c(n1)N(C1CCCC1)C(C)CC(=O)N2C (stereo unspecified) too. 100

Check `CC[C@@H]1C(=O)N(C)c2cnc(Nc3ccc(C(=O)NC4CCN(C)CC4)cc3OC)nc2N1C1CCCC1` too. 100

###

Test system: FLT3 (human), P36888 [ITD]
Sequence (P36888 whole entry, looked up, change not shown): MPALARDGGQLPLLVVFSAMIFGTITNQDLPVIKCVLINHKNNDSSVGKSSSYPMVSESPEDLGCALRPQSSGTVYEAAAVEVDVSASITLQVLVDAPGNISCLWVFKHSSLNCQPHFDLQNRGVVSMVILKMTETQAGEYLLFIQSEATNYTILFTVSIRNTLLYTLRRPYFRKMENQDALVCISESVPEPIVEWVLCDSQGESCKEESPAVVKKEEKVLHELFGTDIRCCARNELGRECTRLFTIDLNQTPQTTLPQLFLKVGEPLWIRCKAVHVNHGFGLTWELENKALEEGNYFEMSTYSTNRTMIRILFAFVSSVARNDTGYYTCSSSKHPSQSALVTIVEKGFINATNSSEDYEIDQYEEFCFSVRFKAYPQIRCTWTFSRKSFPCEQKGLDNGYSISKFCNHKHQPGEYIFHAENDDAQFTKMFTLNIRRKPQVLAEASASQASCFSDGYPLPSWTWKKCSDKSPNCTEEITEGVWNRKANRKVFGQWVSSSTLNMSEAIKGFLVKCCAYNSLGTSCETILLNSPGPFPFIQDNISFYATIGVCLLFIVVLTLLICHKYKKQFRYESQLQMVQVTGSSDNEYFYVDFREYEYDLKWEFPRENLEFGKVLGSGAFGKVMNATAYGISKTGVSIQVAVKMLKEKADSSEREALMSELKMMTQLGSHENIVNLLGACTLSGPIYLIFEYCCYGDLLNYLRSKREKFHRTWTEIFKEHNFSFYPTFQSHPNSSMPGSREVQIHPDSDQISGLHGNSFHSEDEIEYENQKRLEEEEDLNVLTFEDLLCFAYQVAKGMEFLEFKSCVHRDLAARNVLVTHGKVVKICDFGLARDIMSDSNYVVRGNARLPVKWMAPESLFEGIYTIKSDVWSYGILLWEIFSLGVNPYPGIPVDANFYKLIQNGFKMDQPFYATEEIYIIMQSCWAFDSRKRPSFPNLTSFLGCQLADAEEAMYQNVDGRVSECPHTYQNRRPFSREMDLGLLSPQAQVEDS
assay: KINOMEscan competition binding
measurement parameters: compound 10.0 µM
readout: kinase still bound, per cent of control (%)
# unit: % | format: bare number

Sample `COc1cc2c(Nc3ccc(NC(=O)c4ccccc4)cc3)ncnc2cc1OCCCN1CCOCC1` — what was its kinase still bound, per cent of control? 45

Check `COc1ccc(N(C(=O)Oc2cc(C(=O)Nc3cccc(C(F)(F)F)c3)ccc2C)c2ccnc(Nc3ccc(N4CCN(C)CC4)cc3)n2)c(OC)c1` too. 100

Check `CCN1CCN(Cc2ccc(NC(=O)c3ccc(C)c(/C=C/c4cnc5[nH]ccc5c4OC)c3)cc2C(F)(F)F)CC1` too. 0.35

###

target of assay: EPHA2 (human) (UniProt P29317)
assay: KINOMEscan competition binding
measurement parameters: compound 10.0 µM
readout: kinase still bound, per cent of control (%)
# unit: % | format: bare number

Sample `CN(C)C/C=C/C(=O)Nc1cccc(Nc2ncc3c(n2)N(C)c2ccccc2C(=O)N3C)c1` — what was its kinase still bound, per cent of control? 82

Check `C=CC(=O)Nc1cccc(Nc2nc(N[C@H]3CC[C@H](N(C)C)CC3)nc3c2ncn3C(C)C)c1` too. 60

Check `CCC(=O)N1CCN(c2ccc(-n3c(=O)ccc4cnc5ccc(-c6cnc7ccccc7c6)cc5c43)cc2C(F)(F)F)CC1` too. 59

Check `CC[C@@H]1C(=O)N(C)c2cnc(Nc3ccc(C(=O)NC4CCN(C)CC4)cc3OC)nc2N1C1CCCC1` too. 100

Check `N#Cc1c(NC(=O)c2cccc3ccccc23)sc2c1CCCC2` too. 100

Check `O=C(NOC[C@H](O)CO)c1ccc(F)c(F)c1Nc1ccc(I)cc1F` too. 88

Check `Cn1c(=O)n(-c2ccc(C(C)(C)C#N)cc2)c2c3cc(-c4cnc5ccccc5c4)ccc3ncc21` too. 100

###

What kinase still bound, per cent of control was measured for each of the following?
target of assay: STK4 (human)
assay: KINOMEscan competition binding
measurement parameters: compound 10.0 µM
# unit: % | format: bare number

Sample `CCCS(=O)(=O)Nc1ccc(F)c(C(=O)c2c[nH]c3ncc(-c4ccc(Cl)cc4)cc23)c1F` — what was its kinase still bound, per cent of control? 11

Check `C=CC(=O)Nc1cccc(Nc2nc(N[C@H]3CC[C@H](N(C)C)CC3)nc3c2ncn3C(C)C)c1` too. 78

Check `O=C(O)c1ccc(Nc2ncc3c(n2)-c2ccc(Cl)cc2C(c2c(F)cccc2F)=NC3)cc1` too. 85

Check `CCC(=O)N1CCN(c2ccc(-n3c(=O)ccc4cnc5ccc(-c6cnc7ccccc7c6)cc5c43)cc2C(F)(F)F)CC1` too. 7.6

###

target of assay: DYRK1A (human) (UniProt Q13627)
assay: KINOMEscan competition binding
measurement parameters: compound 10.0 µM
What kinase still bound, per cent of control was measured for each of the following?
Please append the unit to your numeric answer.

Given the entry `COc1cc(C(=O)NC2CCN(C)CC2)ccc1Nc1ncc2c(n1)N(C1CCCC1)CCC(=O)N2C(C)C` , what kinase still bound, per cent of control was observed with DYRK1A (human) (UniProt Q13627)? 100%

Check `CCOc1cc2ncc(C#N)c(Nc3ccc(OCc4ccccn4)c(Cl)c3)c2cc1NC(=O)/C=C/CN(C)C` too. 99%

Check `O=C1Nc2ccc(I)cc2/C1=C/c1cc(Br)c(O)c(Br)c1` too. 26%

Check `O=C(O)c1ccc(Nc2ncc3c(n2)-c2ccc(Cl)cc2C(c2c(F)cccc2F)=NC3)cc1` too. 52%

Check `Cn1c(=O)n(-c2ccc(C(C)(C)C#N)cc2)c2c3cc(-c4cnc5ccccc5c4)ccc3ncc21` too. 100%

Check `N#Cc1c(NC(=O)c2cccc3ccccc23)sc2c1CCCC2` too. 100%

Check `COc1cc(N2CCN(C)CC2)ccc1Nc1nc(N)c(C(=O)c2c(Cl)cccc2Cl)s1` too. 72%
